# procedure_summary: In Vitro Stability Assay—Mouse Plasma
# Format: in vitro ADME
# condition: attachment position L11B; before plasma incubation
*1 amine or outer side, *2 acyl side, *3 side chain or, on linkers, in order; H or OH if unused. Where a SMILES comes first, the peptide text is derived from it. [ ]: non-standard residue; d: D form. The star is where a group is joined. Dolaproine = CO[C@@H]([C@@H]1CCCN1)[C@@H](C)C(=O)O; Dil = CC[C@H](C)[C@H](NC)[C@@H](CC(=O)O)OC; PABC = O=C(OCc1ccc(N[*:1])cc1)[*:2]; Doe = c1ccc(C[C@H](N*)c2nccs2)cc1; Cit = NC(=O)NCCC[C@H](N)C(=O)O; Propanoyl(3-OH) = O=C(CCO)*; Me2Gly = CN(C)CC(=O)*; Aib = CC(C)(N)C(=O)O; Ethyl(2-NH2) = NCC*; Sar = CNCC(=O)O
reported_property: DAR

molecule | numeric_result
CC[C@H](C)[C@@H]([C@@H](CC(=O)N1CCC[C@H]1[C@H](OC)[C@@H](C)C(=O)N[C@@H](Cc1ccccc1)c1nccs1)OC)N(C)C(=O)[C@@H](NC(=O)C(C)(C)NC(=O)OCc1ccc(NC(=O)[C@H](CCCNC(N)=O)NC(=O)[C@@H](NC(=O)[C@H](CCCCN)NC(=O)CNC)C(C)C)cc1)C(C)C [Example 27] (H-[Sar]KV[Cit][PABC][Aib]V[Dil][Dolaproine]-Doe) | 1.72
CC[C@H](C)[C@@H]([C@@H](CC(=O)N1CCC[C@H]1[C@H](OC)[C@@H](C)C(=O)N[C@@H](Cc1ccccc1)c1nccs1)OC)N(C)C(=O)[C@@H](NC(=O)C(C)(C)NC(=O)OCc1ccc(NC(=O)[C@H](CCCNC(N)=O)NC(=O)[C@@H](NC(=O)[C@H](CCCCN)NC(=O)CN)C(C)C)cc1)C(C)C [Example 29] (H-GKV[Cit][PABC][Aib]V[Dil][Dolaproine]-Doe) | 1.80
CC[C@H](C)[C@@H]([C@@H](CC(=O)N1CCC[C@H]1[C@H](OC)[C@@H](C)C(=O)N[C@@H](Cc1ccccc1)c1nccs1)OC)N(C)C(=O)[C@@H](NC(=O)C(C)(C)NC(=O)OCc1ccc(NC(=O)[C@H](CCCNC(N)=O)NC(=O)[C@@H](NC(=O)[C@@H](COCCN)NC(C)=O)C(C)C)cc1)C(C)C [Example 46] (Ac-[dS](Ethyl(2-NH2))V[Cit][PABC][Aib]V[Dil][Dolaproine]-Doe) | 1.36
CC[C@H](C)[C@@H]([C@@H](CC(=O)N1CCC[C@H]1[C@H](OC)[C@@H](C)C(=O)N[C@@H](Cc1ccccc1)c1nccs1)OC)N(C)C(=O)[C@@H](NC(=O)C(C)(C)NC(=O)OCc1ccc(NC(=O)[C@H](CCCNC(N)=O)NC(=O)[C@@H](NC(=O)[C@H](CCCCN)NC(=O)CN(C)C)C(C)C)cc1)C(C)C [Example 28] (Me2Gly-KV[Cit][PABC][Aib]V[Dil][Dolaproine]-Doe) | 1.83
CC[C@H](C)[C@@H]([C@@H](CC(=O)N1CCC[C@H]1[C@H](OC)[C@@H](C)C(=O)N[C@@H](Cc1ccccc1)c1nccs1)OC)N(C)C(=O)[C@@H](NC(=O)C(C)(C)NC(=O)OCc1ccc(NC(=O)[C@H](CCCNC(N)=O)NC(=O)[C@@H](NC(=O)[C@H](CCCCN)NC(=O)CCO)C(C)C)cc1)C(C)C [Example 43] ({Propanoyl(3-OH)}-KV[Cit][PABC][Aib]V[Dil][Dolaproine]-Doe) | 1.62

---

# procedure_summary: In Vitro Stability Assay—Mouse Plasma
# Type: in vitro ADME
# condition: attachment position L11B; before plasma incubation
*1 amine or outer side, *2 acyl side, *3 side chain or, on linkers, in order; H or OH if unused. Where a SMILES comes first, the peptide text is derived from it. [ ]: non-standard residue; d: D form. The star is where a group is joined. Dolaproine = CO[C@@H]([C@@H]1CCCN1)[C@@H](C)C(=O)O; Dil = CC[C@H](C)[C@H](NC)[C@@H](CC(=O)O)OC; PABC = O=C(OCc1ccc(N[*:1])cc1)[*:2]; Doe = c1ccc(C[C@H](N*)c2nccs2)cc1; Cit = NC(=O)NCCC[C@H](N)C(=O)O; Isobutyryl = CC(C)C(=O)*; Aib = CC(C)(N)C(=O)O; Piv = CC(C)(C)C(=O)*; Glycolyl = O=C(CO)*
The compounds listed here are annotated with their DAR.

compound | DAR
CC[C@H](C)[C@@H]([C@@H](CC(=O)N1CCC[C@H]1[C@H](OC)[C@@H](C)C(=O)N[C@@H](Cc1ccccc1)c1nccs1)OC)N(C)C(=O)[C@@H](NC(=O)C(C)(C)NC(=O)OCc1ccc(NC(=O)[C@H](CCCNC(N)=O)NC(=O)[C@@H](NC(=O)[C@H](CCCCN)NC(=O)C(C)C)C(C)C)cc1)C(C)C [Example 7] (Isobutyryl-KV[Cit][PABC][Aib]V[Dil][Dolaproine]-Doe) | 1.51
CC[C@H](C)[C@@H]([C@@H](CC(=O)N1CCC[C@H]1[C@H](OC)[C@@H](C)C(=O)N[C@@H](Cc1ccccc1)c1nccs1)OC)N(C)C(=O)[C@@H](NC(=O)C(C)(C)NC(=O)OCc1ccc(NC(=O)[C@H](CCCNC(N)=O)NC(=O)[C@@H](NC(=O)[C@H](CCCCN)NC(=O)[C@H](C)N)C(C)C)cc1)C(C)C [Example 34] (H-AKV[Cit][PABC][Aib]V[Dil][Dolaproine]-Doe) | 1.72
CC[C@H](C)[C@@H]([C@@H](CC(=O)N1CCC[C@H]1[C@H](OC)[C@@H](C)C(=O)N[C@@H](Cc1ccccc1)c1nccs1)OC)N(C)C(=O)[C@@H](NC(=O)C(C)(C)NC(=O)OCc1ccc(NC(=O)[C@H](CCCNC(N)=O)NC(=O)[C@@H](NC(=O)[C@H](CCCCN)NC(=O)[C@H](N)CO)C(C)C)cc1)C(C)C [Example 39] (H-[dS]KV[Cit][PABC][Aib]V[Dil][Dolaproine]-Doe) | 1.87
CC[C@H](C)[C@@H]([C@@H](CC(=O)N1CCC[C@H]1[C@H](OC)[C@@H](C)C(=O)N[C@@H](Cc1ccccc1)c1nccs1)OC)N(C)C(=O)[C@@H](NC(=O)C(C)(C)NC(=O)OCc1ccc(NC(=O)[C@H](CCCNC(N)=O)NC(=O)[C@@H](NC(=O)[C@H](CCCCN)NC(=O)C(C)(C)C)C(C)C)cc1)C(C)C [Example 2] (Piv-KV[Cit][PABC][Aib]V[Dil][Dolaproine]-Doe) | 1.54
CC[C@H](C)[C@@H]([C@@H](CC(=O)N1CCC[C@H]1[C@H](OC)[C@@H](C)C(=O)N[C@@H](Cc1ccccc1)c1nccs1)OC)N(C)C(=O)[C@@H](NC(=O)C(C)(C)NC(=O)OCc1ccc(NC(=O)[C@H](CCCNC(N)=O)NC(=O)[C@@H](NC(=O)[C@H](CCCCN)NC(=O)CO)C(C)C)cc1)C(C)C [Example 25] (Glycolyl-KV[Cit][PABC][Aib]V[Dil][Dolaproine]-Doe) | 1.91

---

# procedure_summary: In Vitro Stability Assay—Mouse Plasma
# Type: in vitro ADME
# condition: attachment position L11B; % DAR remaining after plasma 3 or 4.5 days
*1 amine or outer side, *2 acyl side, *3 side chain or, on linkers, in order; H or OH if unused. Where a SMILES comes first, the peptide text is derived from it. [ ]: non-standard residue; d: D form. The star is where a group is joined. Dolaproine = CO[C@@H]([C@@H]1CCCN1)[C@@H](C)C(=O)O; Dil = CC[C@H](C)[C@H](NC)[C@@H](CC(=O)O)OC; PABC = O=C(OCc1ccc(N[*:1])cc1)[*:2]; Doe = c1ccc(C[C@H](N*)c2nccs2)cc1; Glyceroyl(2S) = O=C([C@@H](O)CO)*; Cit = NC(=O)NCCC[C@H](N)C(=O)O; PhAc = O=C(Cc1ccccc1)*; Me2Gly = CN(C)CC(=O)*; Aib = CC(C)(N)C(=O)O; Piv = CC(C)(C)C(=O)*; Glycolyl = O=C(CO)*

compound | Conjugate stability (%)
CC[C@H](C)[C@@H]([C@@H](CC(=O)N1CCC[C@H]1[C@H](OC)[C@@H](C)C(=O)N[C@@H](Cc1ccccc1)c1nccs1)OC)N(C)C(=O)[C@@H](NC(=O)C(C)(C)NC(=O)OCc1ccc(NC(=O)[C@H](CCCNC(N)=O)NC(=O)[C@@H](NC(=O)[C@H](CCCCN)NC(=O)[C@@H](O)CO)C(C)C)cc1)C(C)C [Example 42] ({Glyceroyl(2S)}-KV[Cit][PABC][Aib]V[Dil][Dolaproine]-Doe) | 85
CC[C@H](C)[C@@H]([C@@H](CC(=O)N1CCC[C@H]1[C@H](OC)[C@@H](C)C(=O)N[C@@H](Cc1ccccc1)c1nccs1)OC)N(C)C(=O)[C@@H](NC(=O)C(C)(C)NC(=O)OCc1ccc(NC(=O)[C@H](CCCNC(N)=O)NC(=O)[C@@H](NC(=O)[C@H](CCCCN)NC(=O)CN(C)C)C(C)C)cc1)C(C)C [Example 28] (Me2Gly-KV[Cit][PABC][Aib]V[Dil][Dolaproine]-Doe) | 4
CC[C@H](C)[C@@H]([C@@H](CC(=O)N1CCC[C@H]1[C@H](OC)[C@@H](C)C(=O)N[C@@H](Cc1ccccc1)c1nccs1)OC)N(C)C(=O)[C@@H](NC(=O)C(C)(C)NC(=O)OCc1ccc(NC(=O)[C@H](CCCNC(N)=O)NC(=O)[C@@H](NC(=O)[C@H](CCCCN)NC(=O)CO)C(C)C)cc1)C(C)C [Example 25] (Glycolyl-KV[Cit][PABC][Aib]V[Dil][Dolaproine]-Doe) | 84
CC[C@H](C)[C@@H]([C@@H](CC(=O)N1CCC[C@H]1[C@H](OC)[C@@H](C)C(=O)N[C@@H](Cc1ccccc1)c1nccs1)OC)N(C)C(=O)[C@@H](NC(=O)C(C)(C)NC(=O)OCc1ccc(NC(=O)[C@H](CCCNC(N)=O)NC(=O)[C@@H](NC(=O)[C@H](CCCCN)NC(=O)Cc2ccccc2)C(C)C)cc1)C(C)C [Example 3] (PhAc-KV[Cit][PABC][Aib]V[Dil][Dolaproine]-Doe) | 0
CC[C@H](C)[C@@H]([C@@H](CC(=O)N1CCC[C@H]1[C@H](OC)[C@@H](C)C(=O)N[C@@H](Cc1ccccc1)c1nccs1)OC)N(C)C(=O)[C@@H](NC(=O)C(C)(C)NC(=O)OCc1ccc(NC(=O)[C@H](CCCNC(N)=O)NC(=O)[C@@H](NC(=O)[C@H](CCCCN)NC(=O)C(C)(C)C)C(C)C)cc1)C(C)C [Example 2] (Piv-KV[Cit][PABC][Aib]V[Dil][Dolaproine]-Doe) | 0

The reported numbers originate from patent US10967068B2.
